tested on: Human immunodeficiency virus 1; assay: Antiviral activity against HIV-1 3B infected in human MT4 cells assessed as inhibition of viral replication incubated for 5 days by MTT assay; assay type: functional, organism-based; settings: Human immunodeficiency virus 1, 3B, MT4, 120 h
pEC50: −log10 of the molar value.

{"molecule": "C=CC(CO)[C@@H]1C[C@H]2c3[nH]c4ccccc4c3CCN2C(=O)[C@@H]1CO (some centres not stated)", "pEC50": 6.64}
{"molecule": "C=CC(CO)[C@@H]1C[C@H]2c3[nH]c4ccccc4c3CCN2C(=O)[C@H]1CO (some centres not stated)", "pEC50": 7.22}

====

assay: Cytotoxicity against human C8166 cells assessed as inhibition of cell growth incubated for 48 hrs by MTT assay; type: toxicity, cell-based

{"compound": "C[C@H]1CC(=O)[C@@H]2CCCN(C)CCCC(=O)/C(=N\\O)C[C@@H]2C1", "CC50 at 48 h": "> 200 µM"}
{"compound": "COc1cc(OC)c([N+](=O)[O-])c2c1-c1c3c(c(OC)c4c1[C@@H](C2)NCC4)OCO3", "CC50 at 48 h": "28.7 µM"}
{"compound": "C=CC(CO)[C@@H]1C[C@H]2c3[nH]c4ccccc4c3CCN2C(=O)[C@@H]1CO (stereo partly specified)", "CC50 at 48 h": "> 200 µM"}
{"compound": "COc1cccc2c1-c1c3c(c(OC)c4cc[n+]([O-])c(c14)C2=O)OCO3", "CC50 at 48 h": "56.6 µM"}
{"compound": "COc1cc(OC)c2c(c1OC)C[C@H]1NCCc3cc4c(c-2c31)OCO4", "CC50 at 48 h": "43.6 µM"}
{"compound": "COc1cc(C)c(Cc2cc3c([nH]c4ccccc43)c3c2OC(C)(C)C=C3)c2c1[nH]c1ccccc12", "CC50 at 48 h": "> 200 µM"}

====

Reported CC50 at 72 h values follow for various compounds
assay: Cytotoxicity against African green monkey Vero cells assessed as reduction in cell viability measured after 72 hrs by MTS assay; format: toxicity, cell-based; details: chlorocebus sabaeus
propertyMeasured: CC50 at 72 h (µM)

{"compound": "O[C@H]1[C@H]2c3cc4c(cc3CN3CCC(=C[C@@H]1O)[C@H]23)OCO4", "displayUnit": "µM", "censoringQualifier": ">", "measuredValue": 1000}
{"compound": "CC[C@H]1CN2CCc3cc(OC)c(OC)cc3[C@@H]2C[C@@H]1C[C@H]1NCCc2cc(OC)c(OC)cc21", "displayUnit": "µM", "censoringQualifier": "=", "measuredValue": 2.17}
{"compound": "CC[C@H]1CN2CCc3cc(OC)c(OC)cc3[C@@H]2C[C@@H]1C[C@H]1NCCc2cc(O)c(OC)cc21", "displayUnit": "µM", "censoringQualifier": "=", "measuredValue": 46.3}

====

biological target: Replicase polyprotein 1ab (Severe acute respiratory syndrome coronavirus 2, UniProt P0DTD1); experiment: Inhibition of SARS-CoV-2 3CL protease by FRET assay
propertyMeasured: IC50

{"compound": "CC(C)=CCC/C(C)=C/COc1c2ccoc2cc2oc(=O)ccc12", "measuredValue": "9.64 µM"}

====

biological target: Human immunodeficiency virus type 1 reverse transcriptase (Human immunodeficiency virus 1, UniProt Q72547); assay: Inhibition of HIV1 reverse transcriptase
pIC50: −log10 of the molar value.
propertyMeasured: pIC50

{"compound": "C=C1[C@H]2O[C@@H](OC)[C@H]3[C@@H]1[C@@H]1O[C@@H]1[C@@]3(CO)O2", "propertyMeasured": "pIC50", "measuredValue": 5.14}
{"compound": "COc1cc(C)c(Cc2cc3c([nH]c4ccccc43)c3c2OC(C)(C)C=C3)c2c1[nH]c1ccccc12", "propertyMeasured": "pIC50", "measuredValue": 7.73}
